B1: MLL5 (parent)
chain: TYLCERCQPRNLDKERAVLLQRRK

# Variants of: B1
# assay_info: protein stability index of a GFP-peptide fusion (GPS, HEK-293T) (PSI 1-6); higher = more stable;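 note: lentivirally expressed fusions sorted by FACS into six bins by GFP to DsRed ratio, PSI derived from sequencing read proportions per bin multiplied by bin number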
# stated_conditions: c terminus: a fixed tail appended
Note to self: values exactly at 2 are Fulfilled. So protein stability index at or above 2 is Fulfilled, below is Not fulfilled.

polymer_sequence: TYLCERCQPRNLDKERAMLLQRRK [V18M]
answer_label: Fulfilled
--
polymer_sequence: TYLCERCQPRNLDKERAVLLQTRK [R22T]
answer_label: Fulfilled
--
polymer_sequence: TYLCERCQPRNLDKERAVLGQRRK [L20G]
answer_label: Fulfilled
--
polymer_sequence: TYFCERCQPRNLDKERAVLLQRRK [L3F]
answer_label: Not fulfilled
--
polymer_sequence: TYLCERCQDRNLDKERAVLLQRRK [P9D]
answer_label: Fulfilled
--
polymer_sequence: TYLCERCQPRNLDKERAVLLQDRK [R22D]
answer_label: Fulfilled
--
polymer_sequence: TYLCERCQPWNLDKERAVLLQRRK [R10W]
answer_label: Not fulfilled
--
polymer_sequence: TYICERCQPRNLDKERAVLLQRRK [L3I]
answer_label: Not fulfilled
--
polymer_sequence: TYLCERCQPRNLDKERAVLLKRRK [Q21K]
answer_label: Fulfilled
--
polymer_sequence: TYLCERCQPRNLGKERAVLLQRRK [D13G]
answer_label: Fulfilled
--
polymer_sequence: TYLCERCQPRNLDKERAVLLQHRK [R22H]
answer_label: Fulfilled
--
polymer_sequence: TYLCERCQPRNLDKERFVLLQRRK [A17F]
answer_label: Fulfilled
--
polymer_sequence: TYLCERCAPRNLDKERAVLLQRRK [Q8A]
answer_label: Fulfilled
--
polymer_sequence: TYLFERCQPRNLDKERAVLLQRRK [C4F]
answer_label: Fulfilled
--
polymer_sequence: TYLCERCQPRNLDKESAVLLQRRK [R16S]
answer_label: Not fulfilled
--
polymer_sequence: TYLCERCQERNLDKERAVLLQRRK [P9E]
answer_label: Fulfilled
--
polymer_sequence: TYLCERGQPRNLDKERAVLLQRRK [C7G]
answer_label: Fulfilled
--
polymer_sequence: TYLCERCRPRNLDKERAVLLQRRK [Q8R]
answer_label: Fulfilled
--
polymer_sequence: TYLKERCQPRNLDKERAVLLQRRK [C4K]
answer_label: Fulfilled
--
polymer_sequence: TYLCERAQPRNLDKERAVLLQRRK [C7A]
answer_label: Fulfilled
--
polymer_sequence: TYLCERCQPRNLDKERANLLQRRK [V18N]
answer_label: Not fulfilled
--
polymer_sequence: TYLCERCQPRNLHKERAVLLQRRK [D13H]
answer_label: Fulfilled
--
polymer_sequence: TYLCERCQPRNLDKERAVLLQRRE [K24E]
answer_label: Fulfilled
--
polymer_sequence: TYLCERCQGRNLDKERAVLLQRRK [P9G]
answer_label: Fulfilled
--
polymer_sequence: TYLCERCQPRNLDKERAVDLQRRK [L19D]
answer_label: Fulfilled
--
polymer_sequence: TQLCERCQPRNLDKERAVLLQRRK [Y2Q]
answer_label: Fulfilled
--
polymer_sequence: TYLCERHQPRNLDKERAVLLQRRK [C7H]
answer_label: Fulfilled
--
polymer_sequence: TYLCERCQPRNLDKERAVALQRRK [L19A]
answer_label: Not fulfilled
--
polymer_sequence: TYLCERCQPRNLDKERAVHLQRRK [L19H]
answer_label: Fulfilled
--
polymer_sequence: TYLCERCQPRNLDKERPVLLQRRK [A17P]
answer_label: Not fulfilled
--
polymer_sequence: TYLCERCQPRNLDKERAVLLQWRK [R22W]
answer_label: Fulfilled
--
polymer_sequence: TYLCERCQPRNLDKERAVLLMRRK [Q21M]
answer_label: Fulfilled
--
polymer_sequence: TYLCERCQPRNLDMERAVLLQRRK [K14M]
answer_label: Fulfilled
--
polymer_sequence: TYCCERCQPRNLDKERAVLLQRRK [L3C]
answer_label: Not fulfilled
--
polymer_sequence: TYLCQRCQPRNLDKERAVLLQRRK [E5Q]
answer_label: Not fulfilled
--
polymer_sequence: TYLCERCQSRNLDKERAVLLQRRK [P9S]
answer_label: Fulfilled
--
polymer_sequence: TYLCERCQPKNLDKERAVLLQRRK [R10K]
answer_label: Not fulfilled
--
polymer_sequence: TYLCERCQQRNLDKERAVLLQRRK [P9Q]
answer_label: Fulfilled
--
polymer_sequence: TYLCSRCQPRNLDKERAVLLQRRK [E5S]
answer_label: Fulfilled
--
polymer_sequence: TYLCERCQPRNLDQERAVLLQRRK [K14Q]
answer_label: Fulfilled
--
polymer_sequence: TYLCERCQPRNLDYERAVLLQRRK [K14Y]
answer_label: Fulfilled
--
polymer_sequence: TYLCERCQPRNLDKERCVLLQRRK [A17C]
answer_label: Fulfilled
--
polymer_sequence: TYLCEDCQPRNLDKERAVLLQRRK [R6D]
answer_label: Fulfilled
